assay.target: RhlR (Pseudomonas aeruginosa)
assay.protocol: P. aeruginosa PAO-JP2 RhlR reporter
Type: cell-based
assay.conditions: P. aeruginosa RhlR reporter strain, dose-response
// reported EC50 per item
readout.label: EC50

compound="CC(C)CC(=O)NC1CCSC1=O (stereo not shown)" val="2580 nM"
compound="O=C(NC1CCOC1=O)C1CCC1 (stereo not shown)" val="1410 nM"
compound=CC(C)CC(=O)N[C@H]1CCOC1=O val="1420 nM"
compound=CCCC(=O)N[C@H]1CCOC1=O val="8080 nM"

----------
assay.target: RhlR (Pseudomonas aeruginosa)
assay.protocol: E. coli RhlR reporter
Assay type: cell-based
assay.conditions: E. coli RhlR reporter strain, dose-response
readout.label: EC50 (nM)

compound="O=C(NC1CCOC1=O)C1CCC1 (stereo not shown)" readout_label=EC50 u=nM val=1780
compound=CCCC(=O)N[C@H]1CCOC1=O readout_label=EC50 u=nM val=8950
compound=CC(C)CC(=O)N[C@H]1CCOC1=O readout_label=EC50 u=nM val=1020
compound="CC(C)CC(=O)NC1CCSC1=O (stereo not shown)" readout_label=EC50 u=nM val=463

----------
assay.target: RhlR (Pseudomonas aeruginosa, UniProt P54292)
Sequence (P54292 whole entry): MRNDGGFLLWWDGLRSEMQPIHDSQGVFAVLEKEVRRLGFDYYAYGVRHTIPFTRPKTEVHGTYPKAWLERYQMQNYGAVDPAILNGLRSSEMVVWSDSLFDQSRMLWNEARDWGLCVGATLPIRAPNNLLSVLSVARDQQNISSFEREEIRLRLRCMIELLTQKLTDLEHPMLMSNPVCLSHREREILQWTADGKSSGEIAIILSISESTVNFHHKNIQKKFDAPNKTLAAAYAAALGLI
assay.protocol: E. coli RhlR reporter
Assay type: cell-based
assay.conditions: E. coli RhlR reporter strain, efficacy
Entries and their Max. RhlR Activation
readout.label: Max. RhlR Activation (%)

molecule="CC(C)CC(=O)NC1CCSC1=O (stereo not shown)" readout_label="Max. RhlR Activation" u=% val=93
molecule=CC(C)CC(=O)N[C@H]1CCOC1=O readout_label="Max. RhlR Activation" u=% val=110
molecule=CCCC(=O)N[C@H]1CCOC1=O readout_label="Max. RhlR Activation" u=% val=100
molecule="O=C(NC1CCOC1=O)C1CCC1 (stereo not shown)" readout_label="Max. RhlR Activation" u=% val=100
